target: mouse MOR (Mus musculus, UniProt P42866); assay: [35S]-GTPγS functional assay, MOR-CHO membranes; conditions: read-out: MOR [35S]-GTPγS assay % Emax of DAMGO, relative to 3 μM DAMGO
Sequence (P42866 whole entry): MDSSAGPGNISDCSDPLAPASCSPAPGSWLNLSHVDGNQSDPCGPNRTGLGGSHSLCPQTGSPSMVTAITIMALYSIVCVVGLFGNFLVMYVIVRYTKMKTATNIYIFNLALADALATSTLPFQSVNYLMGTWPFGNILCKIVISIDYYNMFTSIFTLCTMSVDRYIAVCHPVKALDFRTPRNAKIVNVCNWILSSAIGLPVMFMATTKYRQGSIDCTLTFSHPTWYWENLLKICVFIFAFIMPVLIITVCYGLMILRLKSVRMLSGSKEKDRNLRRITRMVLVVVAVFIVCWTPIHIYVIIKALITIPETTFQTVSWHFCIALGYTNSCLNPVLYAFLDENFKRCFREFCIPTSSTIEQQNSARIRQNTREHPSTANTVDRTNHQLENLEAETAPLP
// reported Emax for each item listed

[
  {
    "compound": "O=C(N[C@H]1CC[C@@]2(O)[C@H]3Cc4ccc(O)c5c4[C@@]2(CCN3CC2CC2)[C@H]1O5)c1cc2ccccc2[nH]1 [Compound 10]",
    "system-name": "mouse MOR (Mus musculus, UniProt P42866)",
    "Emax / %": 36.9
  },
  {
    "compound": "O=C(N[C@@H]1CC[C@@]2(O)[C@H]3Cc4ccc(O)c5c4[C@@]2(CCN3CC2CC2)[C@H]1O5)c1ccc2cc[nH]c2c1 [Compound 5]",
    "system-name": "mouse MOR (Mus musculus, UniProt P42866)",
    "Emax / %": 71.8
  },
  {
    "compound": "O=C(CCCc1c[nH]c2ccccc12)N[C@H]1CC[C@@]2(O)[C@H]3Cc4ccc(O)c5c4[C@@]2(CCN3CC2CC2)[C@H]1O5 [Compound 18]",
    "system-name": "mouse MOR (Mus musculus, UniProt P42866)",
    "Emax / %": 54.9
  },
  {
    "compound": "O=C(N[C@@H]1CC[C@@]2(O)[C@H]3Cc4ccc(O)c5c4[C@@]2(CCN3CC2CC2)[C@H]1O5)c1c[nH]c2ccccc12 [Compound 2]",
    "system-name": "mouse MOR (Mus musculus, UniProt P42866)",
    "Emax / %": 79.5
  },
  {
    "compound": "O=C(Cc1c[nH]c2ccccc12)N[C@H]1CC[C@@]2(O)[C@H]3Cc4ccc(O)c5c4[C@@]2(CCN3CC2CC2)[C@H]1O5 [Compound 16]",
    "system-name": "mouse MOR (Mus musculus, UniProt P42866)",
    "Emax / %": 34.1
  },
  {
    "compound": "O=C(N[C@H]1CC[C@@]2(O)[C@H]3Cc4ccc(O)c5c4[C@@]2(CCN3CC2CC2)[C@H]1O5)c1ccc2[nH]ccc2c1 [Compound 13]",
    "system-name": "mouse MOR (Mus musculus, UniProt P42866)",
    "Emax / %": 32.2
  },
  {
    "compound": "O=C(N[C@H]1CC[C@@]2(O)[C@H]3Cc4ccc(O)c5c4[C@@]2(CCN3CC2CC2)[C@H]1O5)c1ccc2cc[nH]c2c1 [Compound 14]",
    "system-name": "mouse MOR (Mus musculus, UniProt P42866)",
    "Emax / %": 26.6
  },
  {
    "compound": "O=C(CCc1c[nH]c2ccccc12)N[C@@H]1CC[C@@]2(O)[C@H]3Cc4ccc(O)c5c4[C@@]2(CCN3CC2CC2)[C@H]1O5 [Compound 8]",
    "system-name": "mouse MOR (Mus musculus, UniProt P42866)",
    "Emax / %": 45.1
  },
  {
    "compound": "O=C(CCc1c[nH]c2ccccc12)N[C@H]1CC[C@@]2(O)[C@H]3Cc4ccc(O)c5c4[C@@]2(CCN3CC2CC2)[C@H]1O5 [Compound 17]",
    "system-name": "mouse MOR (Mus musculus, UniProt P42866)",
    "Emax / %": 41.5
  },
  {
    "compound": "O=C(N[C@@H]1CC[C@@]2(O)[C@H]3Cc4ccc(O)c5c4[C@@]2(CCN3CC2CC2)[C@H]1O5)c1ccc2[nH]ccc2c1 [Compound 4]",
    "system-name": "mouse MOR (Mus musculus, UniProt P42866)",
    "Emax / %": 22.3
  },
  {
    "compound": "O=C(N[C@@H]1CC[C@@]2(O)[C@H]3Cc4ccc(O)c5c4[C@@]2(CCN3CC2CC2)[C@H]1O5)c1cc2ccccc2[nH]1 [Compound 1]",
    "system-name": "mouse MOR (Mus musculus, UniProt P42866)",
    "Emax / %": 92.4
  },
  {
    "compound": "O=C(Cc1c[nH]c2ccccc12)N[C@@H]1CC[C@@]2(O)[C@H]3Cc4ccc(O)c5c4[C@@]2(CCN3CC2CC2)[C@H]1O5 [Compound 7]",
    "system-name": "mouse MOR (Mus musculus, UniProt P42866)",
    "Emax / %": 48.3
  },
  {
    "compound": "O=C(N[C@H]1CC[C@@]2(O)[C@H]3Cc4ccc(O)c5c4[C@@]2(CCN3CC2CC2)[C@H]1O5)c1c[nH]c2ccccc12 [Compound 11]",
    "system-name": "mouse MOR (Mus musculus, UniProt P42866)",
    "Emax / %": 33.3
  }
]
